target: Ac-VQIINK-NH2 (Homo sapiens); assay: Inhibition of VQIINK aggregation with peptide inhibitors (ThT)
Peptide text beside a SMILES is read from it.
The threshold is 3000 nM. Values of IC50 beneath it are tagged true (1); values meeting or exceeding it are tagged false (0).

[
  {
    "compound": "CC[C@H](C)[C@H](NC(=O)[C@H](CCCNC(=N)N)NC(=O)[C@@H](N)Cc1c[nH]c2ccccc12)C(=O)N[C@@H](Cc1c[nH]c2ccccc12)C(=O)N[C@@H](CC(C)C)C(=O)N[C@@H](CCCNC(=N)N)C(=O)N[C@@H](Cc1ccc(O)cc1)C(=O)N[C@@H](Cc1c[nH]c2ccccc12)C(=O)O [compound 17] (H-WRIWLRYW-OH)",
    "measured-on": "Ac-VQIINK-NH2 (Homo sapiens)",
    "cat": "true (1)"
  },
  {
    "compound": "CC[C@H](C)[C@H](NC(=O)[C@H](Cc1c[nH]c2ccccc12)NC(=O)[C@@H](NC(=O)[C@H](CCCNC(=N)N)NC(=O)[C@@H](N)CC(C)C)[C@@H](C)CC)C(=O)N[C@@H](CCCNC(=N)N)C(=O)N[C@@H](Cc1ccc(O)cc1)C(=O)N[C@@H](CC(C)C)C(=O)O [compound 155] (H-LRIWIRYL-OH)",
    "measured-on": "Ac-VQIINK-NH2 (Homo sapiens)",
    "cat": "true (1)"
  },
  {
    "compound": "CC[C@H](C)[C@H](N)C(=O)N[C@@H](Cc1c[nH]c2ccccc12)C(=O)N[C@H](C(=O)N[C@@H](CCCNC(=N)N)C(=O)N[C@@H](Cc1ccc(O)cc1)C(=O)N[C@@H](Cc1c[nH]c2ccccc12)C(=O)O)[C@@H](C)CC [compound 180] (H-IWIRYW-OH)",
    "measured-on": "Ac-VQIINK-NH2 (Homo sapiens)",
    "cat": "false (0)"
  },
  {
    "compound": "CC[C@H](C)[C@H](NC(=O)[C@H](Cc1ccccc1)NC(=O)[C@@H](NC(=O)[C@H](CCCNC(=N)N)NC(=O)[C@@H](N)Cc1c[nH]c2ccccc12)[C@@H](C)CC)C(=O)N[C@@H](CCCNC(=N)N)C(=O)N[C@@H](Cc1c[nH]c2ccccc12)C(=O)O [compound 136] (H-WRIFIRW-OH)",
    "measured-on": "Ac-VQIINK-NH2 (Homo sapiens)",
    "cat": "false (0)"
  },
  {
    "compound": "CC[C@H](C)[C@H](NC(=O)[C@@H](N)CCCCN)C(=O)N[C@@H](CCCNC(=N)N)C(=O)N[C@@H](CC(C)C)C(=O)N[C@@H](Cc1ccc(O)cc1)C(=O)N[C@@H](Cc1c[nH]c2ccccc12)C(=O)N[C@@H](Cc1c[nH]c2ccccc12)C(=O)O [compound 194] (H-KIRLYWW-OH)",
    "measured-on": "Ac-VQIINK-NH2 (Homo sapiens)",
    "cat": "true (1)"
  }
]

Data origin: patent US20230137562A1
